Just for reference, patent US12410195B2 is where these values come from.

# tested_target: D2S (Homo sapiens)
# Sequence (P14416 1-414 isoform P14416-2): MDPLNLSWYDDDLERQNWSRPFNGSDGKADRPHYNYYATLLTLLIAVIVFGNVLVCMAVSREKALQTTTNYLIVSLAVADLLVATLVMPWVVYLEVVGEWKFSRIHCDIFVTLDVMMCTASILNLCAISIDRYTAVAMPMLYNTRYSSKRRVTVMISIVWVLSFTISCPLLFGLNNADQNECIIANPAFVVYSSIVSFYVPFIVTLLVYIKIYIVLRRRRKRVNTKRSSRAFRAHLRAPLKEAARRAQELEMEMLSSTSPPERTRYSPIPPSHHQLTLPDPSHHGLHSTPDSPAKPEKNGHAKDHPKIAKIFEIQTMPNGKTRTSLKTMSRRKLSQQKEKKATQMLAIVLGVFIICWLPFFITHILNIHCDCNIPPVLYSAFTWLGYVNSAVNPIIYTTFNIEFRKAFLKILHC
metric: pIC50
Interpret pIC50 as the negative base-10 log of the concentration measured in mol/L.

The reported D2S (Homo sapiens) pIC50 of CN1CCN2c3c(cccc31)[C@@H]1CN(CCCC(=O)c3ccc(N4CC[C@H]5[C@@H](C4)c4cccc6c4N5CCN6C)cc3)CC[C@@H]12 [Compound 1] is 6.74

---

# tested_target: 5-HT2A receptor (Homo sapiens, UniProt P28223)
metric: IC50 (nM)
# value in nM; strip the unit string

Case CN1CCN2c3c(cccc31)[C@@H]1CN(CCCC(=O)c3ccc(N4CC[C@H]5[C@@H](C4)c4cccc6c4N5CCN6C)cc3)CC[C@@H]12 , 5-HT2A receptor (Homo sapiens, UniProt P28223), IC50 recorded as 68

---

# tested_target: SERT (Homo sapiens, UniProt P31645)
# Sequence (P31645 whole entry): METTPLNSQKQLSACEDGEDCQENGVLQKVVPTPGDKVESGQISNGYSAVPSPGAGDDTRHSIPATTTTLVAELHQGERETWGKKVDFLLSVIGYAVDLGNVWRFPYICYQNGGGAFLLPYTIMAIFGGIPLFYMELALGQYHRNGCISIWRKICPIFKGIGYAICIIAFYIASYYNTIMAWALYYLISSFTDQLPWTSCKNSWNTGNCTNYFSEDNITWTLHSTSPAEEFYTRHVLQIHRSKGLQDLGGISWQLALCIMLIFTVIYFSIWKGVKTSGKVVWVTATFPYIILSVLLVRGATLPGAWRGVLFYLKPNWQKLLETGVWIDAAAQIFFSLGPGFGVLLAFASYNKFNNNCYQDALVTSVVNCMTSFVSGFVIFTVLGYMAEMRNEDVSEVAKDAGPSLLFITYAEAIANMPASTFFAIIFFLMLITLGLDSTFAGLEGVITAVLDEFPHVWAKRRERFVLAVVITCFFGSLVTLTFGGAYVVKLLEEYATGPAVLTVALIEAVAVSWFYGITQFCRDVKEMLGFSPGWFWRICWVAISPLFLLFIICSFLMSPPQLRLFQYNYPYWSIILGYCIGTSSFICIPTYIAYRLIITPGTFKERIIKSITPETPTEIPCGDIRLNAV
metric: Ki (nM)
Hi! Could you send only the number? It should be in nM, unit omitted.

Measured Ki of CN1CCN2c3c(cccc31)[C@@H]1CN(CCCC(=O)c3ccc(N4CC[C@H]5[C@@H](C4)c4cccc6c4N5CCN6C)cc3)CC[C@@H]12 : 1.3

---

# tested_target: SERT (Homo sapiens, UniProt P31645)
# test: Radioligand receptor binding, SERT (antagonist binding)
# experimental_parameters: Hill equation curve fitting; radioligand imipramine
metric: pIC50
On this scale, pIC50 is minus log10 of a concentration expressed in M (mol/L).

Reported pIC50 ( CN1CCN2c3c(cccc31)[C@@H]1CN(CCCC(=O)c3ccc(N4CC[C@H]5[C@@H](C4)c4cccc6c4N5CCN6C)cc3)CC[C@@H]12 [Compound 1] ) = 8.54

---

# tested_target: 5-HT2A receptor (Homo sapiens, UniProt P28223)
metric: Ki (µM)
Numbers only here, please. The scale is µM.

The recorded Ki with 5-HT2A receptor (Homo sapiens, UniProt P28223) for CN1CCN2c3c(cccc31)[C@@H]1CN(CCCC(=O)c3ccc(N4CC[C@H]5[C@@H](C4)c4cccc6c4N5CCN6C)cc3)CC[C@@H]12 [Compound 1] was 0.051
